# Tested on: C. elegans
# Measurement setup: Table S2, C. elegans SS assay, 110 μM, 0 h, averages of 4 data points
Property label: Percentage of motility inhibition 0 h (%)
Field: numeric (%). Do not append units.

{"Molecule": "CC(C)=CCC[C@](C)(O[C@@H]1O[C@H](CO[C@@H]2OC[C@@H](O)[C@H](O)[C@H]2O)[C@@H](O)[C@H](O)[C@H]1O)[C@H]1CC[C@]2(C)[C@@H]1[C@H](O)C[C@@H]1[C@@]3(C)CC[C@H](O)C(C)(C)[C@@H]3CC[C@]12C [Gypenoside XIII]", "Percentage of motility inhibition 0 h, %": 7}

Any idea what Percentage of motility inhibition 0 h was measured for C/C=C1/[C@H](O[C@@H]2O[C@H](CO)[C@@H](O)[C@H](O)[C@H]2O)OC=C(C(=O)OC)[C@H]1CC(=O)OC[C@H]1O[C@@H](OCCc2ccc(OC(=O)C[C@@H]3C(C(=O)OC)=CO[C@@H](O[C@@H]4O[C@H](CO)[C@@H](O)[C@H](O)[C@H]4O)/C3=C/C)cc2)[C@H](O)[C@@H](O)[C@@H]1O ?
0

// returns reported Percentage of motility inhibition 0 h for input C=C[C@]1(C)C=C2CC[C@H]3[C@@](C)(CCC[C@@]3(C)C(=O)O)[C@@H]2CC1
36

I would be grateful if you could share the reported Percentage of motility inhibition 0 h for CC(=O)O[C@H]1CC[C@]2(C)[C@H]3CC=C4[C@@H]5[C@@H](C)[C@H](C)CC[C@]5(C(=O)O)CC[C@@]4(C)[C@]3(C)CC[C@H]2C1(C)C [Ursolic acid acetate] .
24

---

# Tested on: C. elegans
# Measurement setup: Table S2, C. elegans SS assay, 110 μM, 0 h, averages of 4 data points
Property label: Percentage of motility inhibition 0 h (%)
Report the figure in % without appending any unit label.

# example entries with known answers
{"Compound": "C=C1C(=O)O[C@@H]2CC(C)=C([C@@H](C)CCCOC(C)=O)[C@@H](O)[C@H]12 [Inulicin]", "Unit text": "%", "Reported value": 0}
{"Compound": "CC(=O)[C@H]1CC[C@H]2[C@@H]3CC=C4C[C@@H](OS(=O)(=O)[O-])CC[C@]4(C)[C@H]3CC[C@]12C.[Na+] [Pregnenolone monosulfate (sodium)]", "Unit text": "%", "Reported value": 0}
{"Compound": "COc1ccc(-c2coc3cc(O[C@@H]4O[C@H](CO)[C@@H](O)[C@H](O)[C@H]4O)c(OC)c(O)c3c2=O)cc1O [Iristectorin A]", "Unit text": "%", "Reported value": 0}

Any idea what Percentage of motility inhibition 0 h was measured for C[C@@]1(F)[C@H](O)[C@@H](CO)O[C@H]1n1ccc(=O)[nH]c1=O [PSI‐6206] ?
19

---

# Tested on: C. elegans
# Measurement setup: Table S2, C. elegans SS assay, 110 μM, 0 h, averages of 4 data points
Reported Percentage of motility inhibition 0 h values for a set of compounds

{"Compound": "CC(C)=CCC/C(C)=C/Cc1cc(-c2coc3cc(O)ccc3c2=O)ccc1O", "Percentage of motility inhibition 0 h": "40%"}
{"Compound": "C/C1=C\\CC/C(C)=C/CC(C)(C)/C=C/C1", "Percentage of motility inhibition 0 h": "11%"}
{"Compound": "Cn1nnc(-c2ccc(-c3ccc(N4C[C@@H](CO)OC4=O)cc3F)cn2)n1 [(S)‐Tedizolid]", "Percentage of motility inhibition 0 h": "26%"}
{"Compound": "C=CC(=C)CC/C=C(\\C)CCC=C(C)C [(E)-β-Farnesene]", "Percentage of motility inhibition 0 h": "0%"}

Pending compound:
Can you share its Percentage of motility inhibition 0 h? I mean this compound: CN1Cc2c(ccc3c2OCO3)[C@@]2(C)[C@@H](O)Cc3cc4c(cc3[C@@H]12)OCO4
13%

---

# Test system: C. elegans
# Measurement setup: Table S2, C. elegans SS assay, 110 μM, 0 h, averages of 4 data points
Note to self: values exactly at 10% are met. So Percentage of motility inhibition 0 h at or above 10% is met, below is not met.

Worked set:
{"Compound": "COC[C@]12CN(C)[C@@H]3[C@@H]4[C@H](OC)[C@H]1[C@@]3([C@@H](OC)C[C@H]2O)[C@@H]1C[C@@]2(O)[C@H](OC(=O)c3ccccc3)[C@@H]1[C@]4(OC(C)=O)[C@@H](O)[C@@H]2OC", "Assigned label": "not met"}
{"Compound": "C/C=C/c1cc(OC)c(OC)cc1OC", "Assigned label": "met"}
{"Compound": "Cl.N[C@@H]1CCCCN(c2c(F)cc3c(=O)c(C(=O)O)cn(C4CC4)c3c2Cl)C1 [Besifloxacin (Hydrochloride)]", "Assigned label": "not met"}
{"Compound": "COc1cc[nH]c(=O)c1C#N", "Assigned label": "not met"}
{"Compound": "CC(=O)[N-]S(=O)(=O)c1ccc(N)cc1.[Na+] [Sulfacetamide (Sodium)]", "Assigned label": "met"}
{"Compound": "CCCc1ncc(C[n+]2ccccc2C)c(N)n1.Cl.[Cl-] [Amprolium (hydrochloride)]", "Assigned label": "met"}

For this compound, is measured Percentage of motility inhibition 0 h 10% or higher? C[C@H](CC[C@@H](O[C@@H]1O[C@H](CO[C@@H]2O[C@H](CO)[C@@H](O)[C@H](O)[C@H]2O)[C@@H](O)[C@H](O)[C@H]1O[C@@H]1O[C@H](CO)[C@@H](O)[C@H](O)[C@H]1O)C(C)(C)O)[C@H]1CC[C@@]2(C)[C@@H]3CC=C4[C@@H](CC[C@H](O[C@@H]5O[C@H](CO)[C@@H](O[C@@H]6O[C@H](CO)[C@@H](O)[C@H](O)[C@H]6O)[C@H](O)[C@H]5O)C4(C)C)[C@]3(C)[C@H](O)C[C@]12C [Isomogroside V]
met

Confirm if Percentage of motility inhibition 0 h reported for the compound COc1c(C(C)C)cc2c(c1O)C1(C(=O)O)CCCC(C)(C)C1CC2 (centres unmarked) is 10% or above.
not met

Can CC(C)OC(=O)[C@H](C)N[P@](=O)(CO[C@H](C)Cn1cnc2c(N)ncnc21)Oc1ccccc1.CC(C)OC(=O)[C@H](C)N[P@](=O)(CO[C@H](C)Cn1cnc2c(N)ncnc21)Oc1ccccc1.O=C(O)/C=C/C(=O)O [GS‐7340 (hemifumarate)] be said to have Percentage of motility inhibition 0 h at or above 10%?
met

Decide: Percentage of motility inhibition 0 h of CO/N=C(\C(=O)N[C@@H]1C(=O)N2C(C(=O)[O-])=C(C[n+]3cccc4c3CCC4)CS[C@H]12)c1csc(N)n1.O=S(=O)(O)O [Cefpirome (sulfate)] >= 10%?
met

Confirm if Percentage of motility inhibition 0 h reported for the compound CCC[C@@H]1C[C@@H](C(=O)N[C@@H]([C@H]2O[C@H](SC)[C@H](O)[C@@H](O)[C@H]2O)[C@@H](C)O)N(C)C1.Cl.O [Lincomycin (hydrochloride hydrate)] is 10% or above.
not met

---

# Tested on: C. elegans
# Method: microbe, parasite or virus in culture
# Measurement setup: Caenorhabditis elegans, 24 h, read-out: Percentage of motility inhibition 24 h, Table S2, C. elegans SS assay, 110 μM, 24 h, averages of 4 data points
Here, each record is paired with measured inhibition at 110 µM data.
Response body: numeric value in %, unit text excluded.

{"Compound": "Cc1cc2nc3c(=O)[nH]c(=O)nc-3n(C[C@H](O)[C@H](O)[C@H](O)CO)c2cc1C [Riboflavin]", "Test system": "C. elegans", "inhibition at 110 µM, %": 6}
{"Compound": "COc1ccc(-c2cc(=O)c3c(O)cc(O)cc3o2)cc1 [Acacetin]", "Test system": "C. elegans", "inhibition at 110 µM, %": 2}
{"Compound": "O=c1c(O[C@@H]2OC[C@@H](O)[C@H](O)[C@H]2O)c(-c2ccc(O)c(O)c2)oc2cc(O)cc(O)c12 [Reynoutrin]", "Test system": "C. elegans", "inhibition at 110 µM, %": 7}

Return reported inhibition at 110 µM; argument: CSCC[C@H](N)C(=O)O [L-Methionine]
0

So what does the record say about inhibition at 110 µM for O=C(O)CCCCC1CCSS1 (stereo not drawn) [α-Lipoic Acid] ?
3

What measured inhibition at 110 µM goes with CC[C@@H]1[C@H]2CCCCN3[C@H]2[C@H](C[C@H]3[C@@H]2C[C@H](C)C(=O)O2)[C@@H]2[C@H]1OC(=O)[C@H]2C [Tuberostemonine] ?
4

# get_value(readout='inhibition at 110 µM', item= CC(=O)[C@H]1CC[C@H]2[C@@H]3CCC4=CC(=O)CC[C@]4(C)[C@H]3CC[C@]12C [Progesterone] )
12

Query: inhibition at 110 µM; subject: C[C@@H]1C[C@@H]([C@H](O)CC2CC(=O)NC(=O)C2)C(=O)[C@@H](C)C1 [Cycloheximide]
0

Which value of inhibition at 110 µM has been reported for N[C@@H](Cc1c[nH]cn1)C(=O)O [L-Histidine] in the records?
22
